IC50 for assorted compounds
Target: CDK2 (Homo sapiens, UniProt P24941)
Construct: endogenous in cells; host or cells: OVCAR3 cells
Assay: Phospho-RB measurement in OVCAR3 cells (HTRF phospho-RB S807/811)
Type: cell-based
Conditions: phosphorylation of RB protein at S807/811, HTRF, 24 h compound treatment, 0.3 to 10,000 nM, read-out: pRb (uM)
Experimental: The ability of compounds of Formula (I) to inhibit CDK2 was determined in OVCAR3 cells. Phosphorylation of RB protein at S807/811 were measured using HTRF phospho-RB cellular kits (Cat #64RBS807PEG) from Cisbio. […] Detection plates were incubated for 4 h at room temperature and read on ClarioStar (BMG Labtech) in TR-FRET mode ([…]). […] Half maximal inhibition concentration (IC50) values are calculated with a four-parameter logistic fit using GraphPad Prism (version 8; La Jolla, CA).
Supply the numeric figure in µM, leaving out any unit text.

Examples with answers:
- smilesText: "C[C@H]1COC[C@H](C)N1c1nc(-c2cccc(NS(=O)(=O)c3c(F)cccc3C(F)(F)F)c2F)c(-c2ccnc(NC3CC4(C3)CS(=O)(=O)C4)n2)s1"
  IC50 / µM: 0.06
- smilesText: "O=S1(=O)CC2(CC(Nc3nccc(-c4sc(N5CC6CCC(C5)N6c5ccccn5)nc4-c4cccc(NS(=O)(=O)c5c(F)cccc5F)c4F)n3)C2)C1"
  IC50 / µM: 0.42
- smilesText: "O=S1(=O)C[C@@H]2[C@H](C1)[C@H]2Nc1nccc(-c2sc(N3C4CCC3CN(C3CC3)C4)nc2-c2cccc(NS(=O)(=O)c3c(F)cccc3C(F)(F)F)c2F)n1"
  IC50 / µM: 0.45
- smilesText: "CN1CC2CCC(C1)N2c1nc(-c2cccc(NS(=O)(=O)c3c(F)cccc3C(F)(F)F)c2F)c(-c2ccnc(NC3CC4(C3)CS(=O)(=O)C4)n2)s1"
  IC50 / µM: 0.04

// below: IC50 requested for another compound
Report measured IC50; entry is `O=S1(=O)C[C@@H]2[C@H](C1)[C@H]2Nc1nccc(-c2sc(C34CCC(CC3)CC4)nc2-c2cccc(NS(=O)(=O)c3c(F)cccc3F)c2F)n1` 0.09

###

Each item that follows carries a reported IC50.
target: CDK2 (Homo sapiens, UniProt P24941); construct: endogenous in cells; host or cells: OVCAR3 cells; test: Phospho-RB measurement in OVCAR3 cells (HTRF phospho-RB S807/811); format: cell-based; conditions: phosphorylation of RB protein at S807/811, HTRF, 24 h compound treatment, 0.3 to 10,000 nM, read-out: pRb (uM)
Put your answer as a value accompanied by its unit after it.

Below are worked cases with known answers.
- smilesText: "O=S1(=O)CC2(CC(Nc3nccc(-c4sc(C56CC7CC(CC(C7)C5)C6)nc4-c4cccc(NS(=O)(=O)c5c(F)cccc5F)c4F)n3)C2)C1"
  IC50: "0.08 µM"
- smilesText: "C[C@@H]1CN(C)C[C@@H](C)N1c1nc(-c2cccc(NS(=O)(=O)c3c(F)cccc3F)c2F)c(-c2ccnc(NC3CC4(C3)CS(=O)(=O)C4)n2)s1"
  IC50: "0.9 µM"

Now, please, on to the next compound.
Using known records, supply IC50 for `O=S1(=O)CC2(CC(Nc3nccc(-c4sc(C56CC(C5)C6)nc4-c4cccc(NS(=O)(=O)c5c(Cl)cccc5Cl)c4F)n3)C2)C1` 0.07 µM

###

molecular target: CDK2 (Homo sapiens, UniProt P24941); construct: endogenous in cells; host or cells: OVCAR3 cells; test: Phospho-RB measurement in OVCAR3 cells (HTRF phospho-RB S807/811); format: cell-based; settings: phosphorylation of RB protein at S807/811, HTRF, 24 h compound treatment, 0.3 to 10,000 nM, read-out: pRb (uM)
endpointLabel: IC50 (µM)
API: value field is a number in µM; no unit string.

Check out these entries, answers already filled in.
- molecule: "CC1(C#N)CC2CCC(C1)N2c1nc(-c2cccc(NS(=O)(=O)c3c(F)cccc3F)c2F)c(-c2ccnc(NC3CC4(C3)CS(=O)(=O)C4)n2)s1 (centres unmarked) [Example 33]"
  recordedNumber: 0.1
- molecule: "O=S1(=O)C[C@@H]2[C@H](C1)[C@H]2Nc1nccc(-c2sc(N3C4CCC3CN(C3CC(F)(F)C3)C4)nc2-c2cccc(NS(=O)(=O)c3c(F)cccc3OC(F)F)c2F)n1 [Example 123]"
  recordedNumber: 0.17
- molecule: "CS(=O)(=O)[C@H]1CC[C@@H](Nc2nccc(-c3sc(C45CC(Cl)(C4)C5)nc3-c3cccc(NS(=O)(=O)c4c(F)cccc4C(F)(F)F)c3F)n2)CC1 [Example 146]"
  recordedNumber: 0.2
- molecule: "CC1CC(C)N1c1nc(-c2cccc(NS(=O)(=O)c3c(F)cccc3F)c2F)c(-c2ccnc(NC3CC4(C3)CS(=O)(=O)C4)n2)s1 (centres unmarked) [Example 71]"
  recordedNumber: 18.9

Supply measured IC50 of O=S1(=O)C[C@@H]2[C@H](C1)[C@@H]2Nc1nccc(-c2sc(C34CCC(CC3)C4)nc2-c2cccc(NS(=O)(=O)c3c(F)cccc3F)c2F)n1 [Example 73] in your reply. 0.6

###

target: CDK2 (Homo sapiens, UniProt P24941); construct: endogenous in cells; host or cells: OVCAR3 cells; experiment: Phospho-RB measurement in OVCAR3 cells (HTRF phospho-RB S807/811); type: cell-based; conditions: phosphorylation of RB protein at S807/811, HTRF, 24 h compound treatment, 0.3 to 10,000 nM, read-out: pRb (uM)
Our labelling divides records by IC50 into ranges: low: < 0.1 µM; intermediate: ≥ 0.1 µM and < 0.3 µM; high: ≥ 0.3 µM

- compound: "O=S1(=O)CC2(CC(Nc3nccc(-c4sc(N5C6CCC5CN(CCC(F)(F)F)C6)nc4-c4cccc(NS(=O)(=O)c5c(F)cccc5F)c4F)n3)C2)C1"
  labelClass: "high"
- compound: "CN1C2CCC1CN(c1nc(-c3cccc(NS(=O)(=O)c4c(F)cccc4F)c3F)c(-c3ccnc(NC4CC5(C4)CS(=O)(=O)C5)n3)s1)C2"
  labelClass: "high"
- compound: "CC1(C)CCN1c1nc(-c2cccc(NS(=O)(=O)c3c(F)cccc3F)c2F)c(-c2ccnc(NC3CC4(C3)CS(=O)(=O)C4)n2)s1"
  labelClass: "intermediate"
- compound: "CC1C2(CC(Nc3nccc(-c4sc(C56CC(C5)C6)nc4-c4cccc(NS(=O)(=O)c5c(F)cccc5F)c4F)n3)C2)CS1(=O)=O (stereo not drawn)"
  labelClass: "low"
- compound: "O=S1(=O)C[C@@H]2[C@H](C1)[C@H]2Nc1nccc(-c2sc(C34CC5CC(CC(C5)C3)C4)nc2-c2cccc(NS(=O)(=O)c3c(F)cccc3F)c2F)n1"
  labelClass: "intermediate"

Kindly identify the class of CC1CN(C)CC(C)N1c1nc(-c2cccc(NS(=O)(=O)c3c(F)cccc3F)c2F)c(-c2ccnc(NC3CC4(C3)CS(=O)(=O)C4)n2)s1 (stereo not drawn) . low

Class for `CN1CCC(C)(c2nc(-c3cccc(NS(=O)(=O)c4c(F)cccc4F)c3F)c(-c3ccnc(NC4CC5(C4)CS(=O)(=O)C5)n3)s2)CC1` ? high

Hi, small favor: classify `O=S1(=O)CC2(CC(Nc3nccc(-c4sc(C56CC(C5)C6)nc4-c4cccc(NS(=O)(=O)c5c(F)cccc5F)c4F)n3)C2)C1` by its IC50 when you get a moment. intermediate

Assign a bin to `C[C@@H]1CNC[C@@H](C)N1c1nc(-c2cccc(NS(=O)(=O)c3c(F)cccc3F)c2F)c(-c2ccnc(NC3CC4(C3)CS(=O)(=O)C4)n2)s1` high

Dear colleague, I would appreciate it if you could identify the bin for `O=S1(=O)CC2(CC(Nc3nccc(-c4sc(C56CC(C5)C6)nc4-c4cccc(NS(=O)(=O)c5c(F)cccc5C(F)F)c4F)n3)C2)C1` and reply at your convenience. low

###

molecular target: CDK2 (Homo sapiens); construct: endogenous in cells; host or cells: OVCAR3 cells; assay: Phospho-RB measurement in OVCAR3 cells (HTRF phospho-RB S807/811); format: cell-based; conditions: phosphorylation of RB protein at S807/811, HTRF, 24 h compound treatment, 0.3 to 10,000 nM, read-out: pRb (uM)
endpointLabel: log10 of IC50 (log10 of the value in µM)
In our notation, the value equals log10 of IC50 in µM.

Some molecules with known log10 of IC50 results, for comparison:
- molecule: "O=S1(=O)CC2(CC(Nc3nccc(-c4sc(N5C6CCC5CN(C5CC(F)(F)C5)C6)nc4-c4cccc(NS(=O)(=O)c5c(F)cccc5C(F)F)c4F)n3)C2)C1"
  log10 of IC50: -0.72
- molecule: "O=S1(=O)CC2(CC(Nc3nccc(-c4sc(N5C6CCC5CN(c5ccccn5)C6)nc4-c4cccc(NS(=O)(=O)c5c(F)cccc5F)c4F)n3)C2)C1"
  log10 of IC50: -0.34
- molecule: "O=S1(=O)CC2(CC(Nc3nccc(-c4sc(N5CC6CCC5CC6)nc4-c4cccc(NS(=O)(=O)c5c(F)cccc5F)c4F)n3)C2)C1"
  log10 of IC50: -1.10
- molecule: "CC1(O)CC(N2CC3CCC(C2)N3c2nc(-c3cccc(NS(=O)(=O)c4c(F)cccc4F)c3F)c(-c3ccnc(NC4CC5(C4)CS(=O)(=O)C5)n3)s2)C1 (stereo not shown)"
  log10 of IC50: 0.13
- molecule: "C[C@H]1COC[C@H](C)N1c1nc(-c2cccc(NS(=O)(=O)c3c(F)cccc3F)c2F)c(-c2ccnc(N[C@H]3[C@@H]4CS(=O)(=O)C[C@@H]43)n2)s1"
  log10 of IC50: -0.77

Supply measured log10 of IC50 of CC1CCC(C)N1c1nc(-c2cccc(NS(=O)(=O)c3c(F)cccc3F)c2F)c(-c2ccnc(NC3CC4(C3)CS(=O)(=O)C4)n2)s1 (stereo not shown) in your reply. -0.41
